These compounds were tested on PCSK9 and the LDL receptor (Homo sapiens); pIC50 is the recorded read-out.
pIC50: −log10 of the molar value.

# count of solved cases: 2
[
  {
    "Compound": "Cc1cn(-c2cc(NS(=O)(=O)c3ccc(C)c(Nc4nccc(-c5ccccc5)n4)c3)cc(C(F)(F)F)c2)cn1 [Example 15]",
    "pIC50": "4.00 to 5.00"
  },
  {
    "Compound": "Cc1cc(-c2cc(NC(=O)c3ccc(C)c(Nc4nccc(-c5ccc(F)cc5)n4)c3)cc(N3CCN(C)CC3)c2)on1 [Example 29]",
    "pIC50": "4.00 to 5.00"
  }
]

Exam item: # lookup: pIC50 of Cc1cn(-c2cc(NC(=O)c3ccc(C)c(OCc4ccccc4)c3)cc(C(F)(F)F)c2)cn1 [Example 14]
Marked response: 4.00 to 5.00

Exam item: What do you get for Cc1cn(-c2cc(CN3CCCC[C@H]3C(N)=O)cc(NC(=O)c3ccc(C)c(Nc4nccc(-c5ccc(F)cc5)n4)c3)c2)cn1 [Example 21] ?
Marked response: 5.00 to 6.00

----------
Target: PCSK9 and the LDL receptor (Homo sapiens, UniProt Q8NBP7)
Sequence (Q8NBP7 153-692): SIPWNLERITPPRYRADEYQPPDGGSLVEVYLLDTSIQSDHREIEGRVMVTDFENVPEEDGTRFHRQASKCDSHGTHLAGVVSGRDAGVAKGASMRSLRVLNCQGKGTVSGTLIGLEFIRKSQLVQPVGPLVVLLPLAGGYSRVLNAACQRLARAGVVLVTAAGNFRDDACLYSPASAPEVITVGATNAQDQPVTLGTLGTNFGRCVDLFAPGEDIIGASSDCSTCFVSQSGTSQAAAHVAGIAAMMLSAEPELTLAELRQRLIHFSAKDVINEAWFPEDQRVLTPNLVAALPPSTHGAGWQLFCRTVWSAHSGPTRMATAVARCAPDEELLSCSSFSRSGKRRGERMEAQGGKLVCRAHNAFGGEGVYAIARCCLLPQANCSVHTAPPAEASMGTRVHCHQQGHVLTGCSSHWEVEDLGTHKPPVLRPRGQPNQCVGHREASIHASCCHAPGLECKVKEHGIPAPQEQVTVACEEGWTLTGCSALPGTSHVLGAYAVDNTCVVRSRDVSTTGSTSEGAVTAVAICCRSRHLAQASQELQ
Sequence (Q8NBP7 31-152 partner limits assumed): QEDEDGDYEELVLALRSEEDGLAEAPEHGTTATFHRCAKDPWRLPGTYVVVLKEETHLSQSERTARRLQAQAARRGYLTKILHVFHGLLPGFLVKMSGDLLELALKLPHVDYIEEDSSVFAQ
The following compounds are shown together with reported IC50 values.

# count of solved cases: 4
[
  {
    "Structure Smiles String": "Cc1cn(-c2cc(NC(=O)c3ccc(C)c(Nc4nccc(-c5ccccc5)n4)c3)cc(N3CCN(C)CC3)c2)cn1",
    "Study Target": "PCSK9 and the LDL receptor (Homo sapiens, UniProt Q8NBP7)",
    "Measured": "100 to 1000 nM"
  },
  {
    "Structure Smiles String": "Cc1cn(-c2cc(CN3CCC[C@H](N)C3)cc(NC(=O)c3ccc(C)c(Oc4ccccc4)c3)c2)cn1",
    "Study Target": "PCSK9 and the LDL receptor (Homo sapiens, UniProt Q8NBP7)",
    "Measured": "100 to 1000 nM"
  },
  {
    "Structure Smiles String": "Cc1cn(-c2cc(NC(=O)c3ccc(C)c(Oc4ccccc4)c3)cc(C(F)(F)F)c2)cn1",
    "Study Target": "PCSK9 and the LDL receptor (Homo sapiens, UniProt Q8NBP7)",
    "Measured": "10000 to 100000 nM"
  },
  {
    "Structure Smiles String": "Cc1cn(-c2cc(NC(=O)c3ccc(C)c(Nc4nccc(-c5ccccc5)n4)c3)cc(C(F)(F)F)c2)cn1",
    "Study Target": "PCSK9 and the LDL receptor (Homo sapiens, UniProt Q8NBP7)",
    "Measured": "1000 to 10000 nM"
  }
]

Exam item: Hi! What's the reported IC50 for Cc1cn(-c2cc(NC(=O)c3ccc(C)c(Nc4nccc(-c5ccncc5)n4)c3)cc(C(F)(F)F)c2)cn1 on PCSK9 and the LDL receptor (Homo sapiens, UniProt Q8NBP7)?
Marked response: 1000 to 10000 nM
